Biological target: PRMT1 (Homo sapiens)
Construct: made in house
Sequence (Q99873 1-353 isoform Q99873-3): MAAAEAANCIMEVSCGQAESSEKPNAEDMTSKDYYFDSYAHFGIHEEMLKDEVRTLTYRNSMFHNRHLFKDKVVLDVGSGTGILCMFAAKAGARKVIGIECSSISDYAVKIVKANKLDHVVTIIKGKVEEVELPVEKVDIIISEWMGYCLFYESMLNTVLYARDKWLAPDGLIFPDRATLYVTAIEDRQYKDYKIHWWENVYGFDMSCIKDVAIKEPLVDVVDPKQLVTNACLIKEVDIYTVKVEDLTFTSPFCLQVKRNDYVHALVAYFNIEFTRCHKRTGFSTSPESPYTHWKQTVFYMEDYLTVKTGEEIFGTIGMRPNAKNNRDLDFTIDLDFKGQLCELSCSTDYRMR
Test: MTase-Glo Methyltransferase Assay, kinetic parameters of peptide substrates
Format: biochemical
Conditions: MTase-Glo luminescence; peptide 0–1000 µM; 4 µL of 200 nM PRMT1; 10 min at 37 °C; Tris pH 8.0; SAH standards; fit with GraFit; read-out: Km
measurement.label: Km
Give the number first and the unit second.

Look over these answered cases.
Query string: Fill blank: measured Km of the sequence XKKVVRGGKGLGKGGAK [VALPep4] is ____.
Result string: 7.42 µM

Query string: Fill blank: measured Km of the sequence XKCKARGGKGLGKGGAK [VALPep1] is ____.
Result string: 8.72 µM

Query string: Fill blank: measured Km of the sequence XCCVARGGKGLGKGGAK [Well G2 Peptide, “hit” library peptide X…, X = acetylated lysine] is ____.
Result string: 25.4 µM

Query string: Fill blank: measured Km of the sequence XKKKARGGKGLGKGGAK [VALPep2] is ____.
Result string: 7.82 µM

Please state, for each entry, its recorded Km.
1. VKVCXRGGKGLGKGGAK [Well D5 Peptide, “hit” library peptide VKVCX…, X = acetylated lysine]
2. XKCVVRGGKGLGKGGAK [VALPep3]

Result string:
6.78 µM
6.92 µM
